Target: Histamine H3 receptor (Homo sapiens)
Sequence (Q9Y5N1 whole entry): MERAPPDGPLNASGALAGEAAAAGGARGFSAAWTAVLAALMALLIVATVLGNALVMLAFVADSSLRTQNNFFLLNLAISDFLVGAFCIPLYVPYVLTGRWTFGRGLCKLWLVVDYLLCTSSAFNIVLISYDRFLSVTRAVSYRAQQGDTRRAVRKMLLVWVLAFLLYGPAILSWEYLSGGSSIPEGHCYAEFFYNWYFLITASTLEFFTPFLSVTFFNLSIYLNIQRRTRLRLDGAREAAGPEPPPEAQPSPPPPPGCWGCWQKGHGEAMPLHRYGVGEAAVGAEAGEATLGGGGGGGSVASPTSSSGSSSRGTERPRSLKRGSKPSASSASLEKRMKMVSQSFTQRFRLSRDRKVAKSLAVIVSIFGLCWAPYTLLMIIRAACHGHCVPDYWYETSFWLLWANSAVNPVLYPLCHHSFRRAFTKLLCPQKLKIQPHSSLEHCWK
Experiment: Inhibition of human H3-receptor using [3H]N-alpha-methyl histamine
Property: pEC50
In simple prose, pEC50 is minus the logarithm base ten of a concentration in moles per litre.

### Prompt I would be grateful if you could share the reported pEC50 for "N[C@@H]1C[C@@H]1c1c[nH]cn1" .
### Response 5.63

====

Target: Histamine H3 receptor (Rattus norvegicus)
Experiment: Affinity against rat Histamine H3 receptor using [3H]N-alpha-methyl histamine
Property: pKi
In simple prose, pKi is minus the logarithm base ten of a concentration in moles per litre.

Below, each entry is followed by its recorded pKi result.
### Prompt I would be grateful if you could share the reported pKi for "NC[C@@H]1C[C@@H]1c1cnc[nH]1" .
### Response 8.60

### Prompt I would be grateful if you could share the reported pKi for "NCC[C@@H]1C[C@@H]1c1cnc[nH]1" .
### Response 8.88

***
### Prompt I would be grateful if you could share the reported pKi for "N[C@H]1C[C@H]1c1c[nH]cn1" .
### Response 5.86

### Prompt I would be grateful if you could share the reported pKi for "N[C@@H]1C[C@@H]1c1c[nH]cn1" .
### Response 7.04

### Prompt I would be grateful if you could share the reported pKi for N[C@@H]1C[C@H]1c1cnc[nH]1 [VUF-5296] .
### Response 7.37

====

Target: Histamine H3 receptor (Rattus norvegicus, UniProt Q9QYN8)
Sequence (Q9QYN8 whole entry): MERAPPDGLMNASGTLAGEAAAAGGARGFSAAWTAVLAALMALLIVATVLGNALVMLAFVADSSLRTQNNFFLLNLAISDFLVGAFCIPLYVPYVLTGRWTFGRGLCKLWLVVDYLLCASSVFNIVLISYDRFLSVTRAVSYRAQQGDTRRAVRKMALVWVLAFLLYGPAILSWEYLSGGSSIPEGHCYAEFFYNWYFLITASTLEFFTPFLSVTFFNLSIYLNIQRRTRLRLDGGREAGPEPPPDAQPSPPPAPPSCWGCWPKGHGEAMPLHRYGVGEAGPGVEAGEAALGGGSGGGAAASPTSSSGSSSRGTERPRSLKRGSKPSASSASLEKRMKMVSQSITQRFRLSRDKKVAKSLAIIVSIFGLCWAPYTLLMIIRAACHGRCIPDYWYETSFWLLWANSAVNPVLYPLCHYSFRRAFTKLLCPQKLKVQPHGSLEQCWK
Assay: Inhibition of rat Histamine H3 receptor using [3H]N-alpha-methyl histamine
Property: pKi
In simple prose, pKi is minus the logarithm base ten of a concentration in moles per litre.

### Prompt I would be grateful if you could share the reported pKi for S=C(NC1CCCCC1)N1CCC(c2cnc[nH]2)CC1 [THIOPERAMIDE] .
### Response 8.58

====

Biological target: Histamine H3 receptor (Homo sapiens)
Experiment: Inhibition of human Histamine H3 receptor
Listed next: entries and their corresponding log10 EC50.
Reminder: these figures are log10 of reported EC50, in nM before transformation.

### Prompt I would be grateful if you could share the reported log10 EC50 for N[C@@H]1C[C@H]1c1cnc[nH]1 [VUF-5296] .
### Response 2.86

***
### Prompt I would be grateful if you could share the reported log10 EC50 for "NC[C@@H]1C[C@@H]1c1cnc[nH]1" .
### Response 1.98

### Prompt I would be grateful if you could share the reported log10 EC50 for "NCC[C@@H]1C[C@@H]1c1cnc[nH]1" .
### Response 1.00

### Prompt I would be grateful if you could share the reported log10 EC50 for "NCC[C@H]1C[C@H]1c1cnc[nH]1" .
### Response 3.15

### Prompt I would be grateful if you could share the reported log10 EC50 for N[C@H]1C[C@@H]1c1c[nH]cn1 [VUF-5297] .
### Response 1.62

### Prompt I would be grateful if you could share the reported log10 EC50 for N=C(N)SCCc1cnc[nH]1 [IMETIT] .
### Response 0.28

====

Molecular target: Histamine H3 receptor (Rattus norvegicus, UniProt Q9QYN8)
Experiment: Affinity against rat Histamine H3 receptor using [3H]N-alpha-methyl histamine
Property: pKi
In simple prose, pKi is minus the logarithm base ten of a concentration in moles per litre.

### Prompt I would be grateful if you could share the reported pKi for "NC[C@H]1C[C@H]1c1cnc[nH]1" .
### Response 7.19

These entries and their values trace back to ChEMBL document CHEMBL1145038.
